Origin of values: patent US8119380B2

- Tested on: dicamba O-demethylase
- Type: biochemical
- measurement setup: mixture of three partially purified components, 30 minutes at 30° C.; 0.5 mM NADH, 0.5 mM NADPH, 10 mM MgCl2, 0.5 mM FeSO4, 0.2 mM FAD, 0.2 mM FMN
observable: cofactor effect on dicamba O-demethylase activity

Cc1cc2nc3c(=O)[nH]c(=O)nc-3n(C[C@H](O)[C@H](O)[C@H](O)COP(=O)(O)O)c2cc1C [FMN, flavin mononucleotide]    little or no stimulation
Cc1cc2nc3c(=O)[nH]c(=O)nc-3n(C[C@H](O)[C@H](O)[C@H](O)COP(=O)(O)OP(=O)(O)OC[C@H]3O[C@@H](n4cnc5c(N)ncnc54)[C@H](O)[C@@H]3O)c2cc1C [FAD, flavin adenine dinucleotide]    little or no stimulation
